Origin of the recorded values: patent US20210179729A1

System under test: T1, Cynomolgus monkey CDCP1 (Cynomolgus monkey, UniProt A0A2K5VLA8 30-667)
T1 construct: construct not described
T1 sequence: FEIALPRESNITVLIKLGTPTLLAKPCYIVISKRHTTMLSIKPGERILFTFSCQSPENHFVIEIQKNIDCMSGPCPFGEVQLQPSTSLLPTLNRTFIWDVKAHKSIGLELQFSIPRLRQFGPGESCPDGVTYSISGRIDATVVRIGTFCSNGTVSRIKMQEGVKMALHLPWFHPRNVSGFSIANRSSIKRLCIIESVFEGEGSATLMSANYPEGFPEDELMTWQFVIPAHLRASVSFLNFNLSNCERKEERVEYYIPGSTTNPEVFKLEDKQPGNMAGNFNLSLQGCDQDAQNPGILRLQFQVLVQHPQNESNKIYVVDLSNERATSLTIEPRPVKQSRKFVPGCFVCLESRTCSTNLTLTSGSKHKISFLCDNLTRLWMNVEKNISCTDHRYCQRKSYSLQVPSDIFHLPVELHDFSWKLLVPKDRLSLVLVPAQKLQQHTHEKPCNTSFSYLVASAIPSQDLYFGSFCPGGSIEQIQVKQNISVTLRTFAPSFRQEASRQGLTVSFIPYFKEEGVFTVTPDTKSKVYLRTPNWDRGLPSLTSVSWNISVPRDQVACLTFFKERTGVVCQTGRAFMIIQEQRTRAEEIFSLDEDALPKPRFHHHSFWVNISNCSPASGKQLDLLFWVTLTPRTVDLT
Test description: ELISA; column head 'ELISA~EC50 Kd (nM)'
Would you kindly list EC50 for each of these binders?
Field format: number, assumed nM, no unit text.

Data request, read-out EC50, for CDCP1-006 Fab (Fab, V domains shown, Tested as Fab) VH: EVQLVESGGGLVQPGGSLRLSCAASGFNLYYSYMHWVRQAPGKGLEWVAYISPYSGSTYYADSVKGRFTISADTSKNTAYLQMNSLRAEDTAVYYCARYSYSALDYWGQGTLVTVSS VL: DIQMTQSPSSLSASVGDRVTITCRASQSVSSAVAWYQQKPGKAPKLLIYSASSLYSGVPSRFSGSRSGTDFTLTISSLQPEDFATYYCQQSSWHYHLFTFGQGTKVEIK
3.34

Now give it for CDCP1-003 Fab (Fab, V domains shown, Tested as Fab) VH: EVQLVESGGGLVQPGGSLRLSCAASGFNISYYSMHWVRQAPGKGLEWVASISPYSGYTSYADSVKGRFTISADTSKNTAYLQMNSLRAEDTAVYYCARGYYALDYWGQGTLVTVSS VL: DIQMTQSPSSLSASVGDRVTITCRASQSVSSAVAWYQQKPGKAPKLLIYSASSLYSGVPSRFSGSRSGTDFTLTISSLQPEDFATYYCQQYYYFYPFTFGQGTKVEIK too.
666

Now give it for CDCP1-007 Fab (Fab, V domains shown, Tested as Fab) VH: EVQLVESGGGLVQPGGSLRLSCAASGFNIYSYYIHWVRQAPGKGLEWVASIYPYYGYTSYADSVKGRFTISADTSKNTAYLQMNSLRAEDTAVYYCARAYYGMDYWGQGTLVTVSS VL: DIQMTQSPSSLSASVGDRVTITCRASQSVSSAVAWYQQKPGKAPKLLIYSASSLYSGVPSRFSGSRSGTDFTLTISSLQPEDFATYYCQQSYFYWPITFGQGTKVEIK too.
22.4
